Source listed as the supplement of paper PMC6555819.

Test system: PPARg:RXRa 90nM:30nM, anti-RXR (NR concentration 90 nM, RXRa partner concentration 30 nM)
Assay: PBM binding z-score (relative to random genomic background probes); higher = stronger binding; sequences stand for … in GC…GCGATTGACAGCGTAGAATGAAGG
Observable: PBM binding z-score

sequence_text=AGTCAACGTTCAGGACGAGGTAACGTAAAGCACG result_number=-0.0729
sequence_text=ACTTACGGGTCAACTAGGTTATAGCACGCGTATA result_number=4.51
sequence_text=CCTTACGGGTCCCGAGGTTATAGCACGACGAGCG result_number=-0.745
sequence_text=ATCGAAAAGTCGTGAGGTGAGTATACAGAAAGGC result_number=0.0436
sequence_text=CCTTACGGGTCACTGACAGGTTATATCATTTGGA result_number=2.98
sequence_text=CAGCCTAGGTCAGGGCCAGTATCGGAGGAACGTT result_number=0.129
sequence_text=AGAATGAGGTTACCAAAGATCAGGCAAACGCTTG result_number=1.84
sequence_text=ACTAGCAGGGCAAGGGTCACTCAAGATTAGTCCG result_number=7.64
sequence_text=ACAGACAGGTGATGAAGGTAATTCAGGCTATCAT result_number=-0.356
